Assay: Displacement of [3H]di-o-tolylguanidine from sigma 2 receptor in rat liver membranes after 120 mins by liquid scintillation spectrometry in presence of (+)-pentazocine
Format: cell membranes, Membrane
pKi: −log10 of the molar value.
reported-property: pKi

Example cases with answers are listed next.
Cc1ccc(-c2cnc(C3(O)CCN(Cc4ccccc4)CC3)s2)cc1
6.34
O=C(CCCN1CCC(O)(c2ccc(Cl)cc2)CC1)c1ccc(F)cc1 [HALOPERIDOL]
7.66
Cc1ccccc1NC(=N)Nc1ccccc1C [DITOLYLGUANIDINE]
6.97

P. Cc1ccc(-c2csc(C3(O)CCN(Cc4ccccc4)CC3)n2)cc1
Q. OC1(c2nccs2)CCN(Cc2ccccc2)CC1
Which value of pKi is numerically greater: that of P or that of Q ? Bench note: the answer is the label of the chosen record.
P

====

Target: Sigma non-opioid intracellular receptor 1 (Cavia porcellus)
Sequence (Q60492 whole entry): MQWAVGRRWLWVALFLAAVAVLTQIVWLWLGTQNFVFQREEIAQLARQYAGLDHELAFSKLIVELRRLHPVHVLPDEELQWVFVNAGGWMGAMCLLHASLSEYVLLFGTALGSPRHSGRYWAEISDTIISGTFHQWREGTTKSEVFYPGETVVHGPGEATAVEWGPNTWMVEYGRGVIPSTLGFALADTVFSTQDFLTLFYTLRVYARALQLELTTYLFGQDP
Experiment: Displacement of [3H](+)-pentazocine from sigma 1 receptor in guinea pig brain membranes after 150 mins by liquid scintillation spectrometry
pKi: −log10 of the molar value.
reported-property: pKi

Cc1ccc(-c2cnc(C3(O)CCN(Cc4ccccc4)CC3)s2)cc1
8.15

a. Cc1ccc(-c2csc(C3(O)CCN(Cc4ccccc4)CC3)n2)cc1
b. OC1(c2nccs2)CCN(Cc2ccccc2)CC1
Hi, I'm comparing two records. Which one has the lower pKi, a or b ? Bench note: the answer is the label of the chosen record.
b
(b: 7.48, a: 8.42)

These measurements were taken from ChEMBL document CHEMBL3779816.
